Reported koff values are given for each entry in this list.
- TARGET_OR_SYSTEM: T1, hDLL3 ECD-Avi-Fckih (biotinylated extracellular domain of human DLL3, residues 27 to 466, Avi-tag, 3C site, … (human, UniProt Q9NYJ7 27-466, biotinylated at the Avi-tag))
- T1 construct: The make-up of the second Fc chain of the knob-into-hole pair is not described; also called bio-DLL3; recombinant human DLL3; not shown: Avi-tag, 3C protease recognition site and Fc knob into hole
- T1 sequence: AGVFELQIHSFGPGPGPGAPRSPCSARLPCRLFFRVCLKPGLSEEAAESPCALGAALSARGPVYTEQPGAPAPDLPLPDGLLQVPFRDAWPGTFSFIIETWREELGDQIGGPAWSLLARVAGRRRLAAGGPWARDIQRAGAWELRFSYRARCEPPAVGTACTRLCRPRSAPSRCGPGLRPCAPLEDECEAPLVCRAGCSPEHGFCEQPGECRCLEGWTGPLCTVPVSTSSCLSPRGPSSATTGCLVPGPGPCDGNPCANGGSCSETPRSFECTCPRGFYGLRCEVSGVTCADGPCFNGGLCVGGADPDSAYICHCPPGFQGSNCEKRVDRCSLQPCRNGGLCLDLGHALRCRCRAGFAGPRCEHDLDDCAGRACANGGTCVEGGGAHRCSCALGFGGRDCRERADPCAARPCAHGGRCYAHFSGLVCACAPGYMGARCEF
- TEST_DETAILS: SPR (ProteOn), biotinylated hDLL3 ECD-Avi-Fckih on chip, DARPin as analyte, 1:1 Langmuir fit

Check out these entries, answers already filled in.
BINDER	MEASURED_PARAMETER	EXPERIMENTAL_VALUE
MAM283 (two domain ankyrin repeat protein, N-terminal His6-TEV tag) (designed binder, also called 2D DARPin) MRGSHHHHHHENLYFQDLGKKLLEAARAGQDDEVRELLKAGADVNAKDYFSHTPLHLAARNGHLKIVEVLLKAGADVNAKDFAGKTPLHLAADAGHLEIVEVLLKAGADVNAQDIFGKTPADIAADAGHEDIAEVLQKAAGSPTPTPTTPTPTPTTPTPTPTGSDLGKKLLAAAADGQDDEVRELLQAGADVNAKDLFGYTPLHLAAWRGHLEIVEVLLEAGADVNAKDAAGETPLHLAAWFGHLEIVEVLLEAGADVNAQDVQGKTPADLAAKEGHEDIAEVLQQAA	koff	1.79e-05 s⁻¹
MAM279 (two domain ankyrin repeat protein, N-terminal His6-TEV tag) (designed binder, Cleavage of the tag is not reported; also called 2D DARPin) MRGSHHHHHHENLYFQDLGKKLLEAARAGQDDEVRELLKAGADVNAKDYFSHTPLHLAARNGHLKIVEVLLKAGADVNAKDFAGKTPLHLAADAGHLEIVEVLLKAGADVNAQDIFGKTPADIAADAGHEDIAEVLQKAAGSPTPTPTTPTPTPTTPTPTPTGSDLGKKLLAAAAQGQDDEVRELLKAGANVNAKDLFGYTPLHLAAWRGHLEIVEVLLKAGADVNAKDAAGETPLHLAAWFGHLEIVEVLLKAGADVNAQDLQGKTPADLAAKEGHEDIAEVLQKAA	koff	1.44e-05 s⁻¹
MAM160 (two domain ankyrin repeat protein, N-terminal His6-TEV tag) (designed binder, also called 2D DARPin) MRGSHHHHHHENLYFQDLGKKLLEAARAGQDDEVRELLKAGADVNAKDYFSHTPLHLAARNGHLKIVEVLLKAGADVNAKDFAGKTPLHLAADAGHLEIVEVLLKAGADVNAQDIFGKTPADIAADAGHEDIAEVLQKAAGSPTPTPTTPTPTPTTPTPTPTGSDLGTKLLSAAADGQDDEVRELLQAGADVNAKDLFGYTPLHLAAWRGHLEIVEVLLEAGADVNAKDAAGLTPLHLAAWFGHLEIVEVLLEAGADVNAQDVQGVTPADLAAKEGHEDIAEVLQQAA	koff	2.01e-05 s⁻¹

Now take the following binder into account.
Need koff of MAM282 (two domain ankyrin repeat protein, N-terminal His6-TEV tag) (designed binder, also called 2D DARPin) MRGSHHHHHHENLYFQDLGKKLLEAARAGQDDEVRELLKAGADVNAKDYFSHTPLHLAARNGHLKIVEVLLKAGADVNAKDFAGKTPLHLAADAGHLEIVEVLLKAGADVNAQDIFGKTPADIAADAGHEDIAEVLQKAAGSPTPTPTTPTPTPTTPTPTPTGSDLGKKLLAAAREGQDDEVRELLKAGADVNAKDIWGQTPLHIAAWFGHLEIVEVLLKAGADVNAKDQTGHTPLHLAAKFGHLEIVEVLLKAGADVNAQDLLGRTPADLAAEEGHEDIAEVLQKAA , thanks.
3.79e-05 s⁻¹
